Each recorded value in this set is attributed to patent US20110262446A1.

biological target: T1, IGF-II (amino acids 1-67) (human, UniProt P01344 25-91); assay: SPR (Flexchip), Fab, second of duplicate; unit inferred
T1 construct: mature; also called IGF-II (67aa); IGF2
T1 sequence (P01344 25-91): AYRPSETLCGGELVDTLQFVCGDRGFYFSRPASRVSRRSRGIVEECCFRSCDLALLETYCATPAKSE
assay.readout: Kd (pM)

{"binder": "M0063-F02 Fab (Fab, V domains shown, Soluble Fab from phage display; also called M0063-F02(R0032-A01)) VH: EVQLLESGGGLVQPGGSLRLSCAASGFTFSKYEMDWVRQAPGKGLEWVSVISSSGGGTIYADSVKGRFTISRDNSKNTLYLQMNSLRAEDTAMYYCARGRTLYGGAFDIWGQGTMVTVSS VL: DIQMTQSPSSLSASVGDRVTITCRASQPINTYLNWYQQRPGKAPRILIYTSSTLQSGVPSRFSGSGSGTDFTLTISSVQPEDFATYYCQQSYSFPLTFGGGTKVEIKR", "reported.result": 1600}
{"binder": "M0064-F02 Fab (Fab, V domains shown, Soluble Fab from phage display; also called M0064-F02(R0032-A11); 566A-M0064-F02) VH: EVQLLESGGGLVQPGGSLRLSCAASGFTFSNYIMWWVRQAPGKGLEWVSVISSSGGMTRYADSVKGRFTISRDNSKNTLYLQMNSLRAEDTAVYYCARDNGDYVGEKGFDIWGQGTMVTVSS VL: DIQMTQSPSSLSASVGDRVTITCRASQSISNYLNWYQQKPGKAPKLLIYTASTLQSGVPSRFSGSASGTDFTLTINSLQPEDFATYSCQQSYNSPWTFGQGTKVEIKR", "reported.result": 1200}
{"binder": "M0072-C06 Fab (Fab, V domains shown, Soluble Fab from phage display; Often printed as M0072-006; also called M0072-006; M0072-C06(R0032-A09)) VH: EVQLLESGGGLVQPGGSLRLSCAASGFTFSAYIMTWVRQAPGKGLEWVSSISPSGGYTVYADSVKGRFTISRDNSKNTLYLQMNSLRAEDTAVYYCARDSGFGDPFDYWGQGTMVTVSS VL: DIQMTQSPSSLSASVGDRVTITCRASQSIRNYLNWYQQKPGKAPKLLIYAASKLEDGVPSRFSGSGTGTDFTLTIRSLQPEDFASYFCQQSYSSPGITFGPGTKVEIKR", "reported.result": 700}
{"binder": "M0064-E04 Fab (Fab, V domains shown, Soluble Fab from phage display; also called M0064-E04(R0032-A03); 566A-M0064-E04) VH: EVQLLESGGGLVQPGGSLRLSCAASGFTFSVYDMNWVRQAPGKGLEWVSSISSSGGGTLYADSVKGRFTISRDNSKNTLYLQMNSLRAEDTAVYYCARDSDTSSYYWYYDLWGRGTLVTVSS VL: DIQMTQSPSSLSASVGDRVTITCQASHDISNYLNWYQQKPGKAPKLLIYAASRLQSGVPSRFSGGGSGTDFSLTISSLQAEDFATYYCQQSYSFPRTFGQGTNLEIKR", "reported.result": 250}
